Cited source for all entries: ChEMBL document CHEMBL1165908

# Test system: NCI-H460
# Experimental details: Cytotoxicity against human NCI-H460 cells after 3 days by MTT assay
# Type: functional, cell-based
# Cond: NCI-H460, 72 h
Readout: IC50 (nM)
One number for each entry, in nM.

*Q* Can you look up the measured IC50 of `CCNc1nc(SCc2nc3ccccc3[nH]2)nc(-c2ccccc2)c1C#N` for me?
*A* 2.87

*Q* Another: `Cc1ccc(S(=O)(=O)N2CCN(c3nc(SCc4nc5ccccc5[nH]4)nc(-c4ccccc4)c3C#N)CC2)cc1`
*A* 22.7

*Q* Another: `N#Cc1c(-c2ccccc2)nc(SCc2nc3ccccc3[nH]2)nc1N1CCN(S(=O)(=O)c2ccccc2[N+](=O)[O-])CC1`
*A* 3.7

Now consider the entry below.
*Q* Can you look up the measured IC50 of `Cl.N=c1[nH]c(=S)[nH]c2nc(SCc3nc4ccccc4[nH]3)nc(-c3ccccc3)c12` for me?
*A* 3

----------
# Test system: GOTO
# Experimental details: Cytotoxicity against human GOTO cells after 3 days by MTT assay
# Format: functional, cell-based
# Cond: 72 h
Give measured IC50 for each item. Keep answers brief.
Quick note: number first, unit second.

*Q* Can you look up the measured IC50 of `N#Cc1c(Nc2ccncc2)nc(SCc2nc3ccccc3[nH]2)nc1-c1ccccc1` for me?
*A* 2.55 nM

*Q* Another: `N#Cc1c(Nc2nccs2)nc(SCc2nc3ccccc3[nH]2)nc1-c1ccccc1`
*A* 5.1 nM

*Q* Another: `N#Cc1c(Nc2ccccn2)nc(SCc2nc3ccccc3[nH]2)nc1-c1ccccc1`
*A* 2.5 nM

*Q* Another: `N#Cc1c(-c2ccccc2)nc(SCc2nc3ccccc3[nH]2)nc1N1CCN(C(=O)c2ccccc2)CC1`
*A* 8.62 nM

*Q* Another: `N#Cc1c(-c2ccccc2)nc(SCc2nc3ccccc3[nH]2)nc1N1CCN(C(=O)c2ccc([N+](=O)[O-])cc2)CC1`
*A* 5.81 nM

*Q* Another: `N#Cc1c(Cl)nc(SCc2nc3ccccc3[nH]2)nc1-c1ccccc1`
*A* 8.62 nM

Each compound below has a recorded value; state its IC50.
1. Cl.N=c1[nH]c(=O)[nH]c2nc(SCc3nc4ccccc4[nH]3)nc(-c3ccccc3)c12
2. Cl.N=c1[nH]c(=S)[nH]c2nc(SCc3nc4ccccc4[nH]3)nc(-c3ccccc3)c12
3. N#Cc1c(NC(N)=S)nc(SCc2nc3ccccc3[nH]2)nc1-c1ccccc1
4. N#Cc1c(NNC(N)=S)nc(SCc2nc3ccccc3[nH]2)nc1-c1ccccc1
5. CNc1nc(SCc2nc3ccccc3[nH]2)nc(-c2ccccc2)c1C#N
6. N#Cc1c(-c2ccccc2)nc(SCc2nc3ccccc3[nH]2)nc1N1CCN(S(=O)(=O)c2ccccc2[N+](=O)[O-])CC1
7. N#Cc1c(NC(N)=O)nc(SCc2nc3ccccc3[nH]2)nc1-c1ccccc1
8. CN1CCN(c2nc(SCc3nc4ccccc4[nH]3)nc(-c3ccccc3)c2C#N)CC1

*A*
["8.9 nM", "11.9 nM", "4.8 nM", "2.55 nM", "3.28 nM", "3 nM", "11.3 nM", "3.37 nM"]

Each compound below has a recorded value; state its IC50.
1. N#Cc1c(-c2ccccc2)nc(SCc2nc3ccccc3[nH]2)nc1N1CCN(S(=O)(=O)c2ccccc2)CC1
2. CCNc1nc(SCc2nc3ccccc3[nH]2)nc(-c2ccccc2)c1C#N
3. N#Cc1c(O)nc(SCc2nc3ccccc3[nH]2)nc1-c1ccccc1
4. Cc1ccc(S(=O)(=O)N2CCN(c3nc(SCc4nc5ccccc5[nH]4)nc(-c4ccccc4)c3C#N)CC2)cc1
5. N#Cc1c(-c2ccccc2)nc(SCc2nc3ccccc3[nH]2)nc1N1CCNCC1
6. N#Cc1c(NN)nc(SCc2nc3ccccc3[nH]2)nc1-c1ccccc1

*A*
1. 5.81 nM
2. 3.96 nM
3. 7.81 nM
4. 4.38 nM
5. 3.7 nM
6. 2.68 nM

----------
# Test system: G-361
# Experimental details: Cytotoxicity against human G361 cells after 3 days by MTT assay
# Assay type: functional, cell-based
# Cond: G-361, 72 h
Readout: pIC50
Answers are plain numbers, as −log10 of the molar value.

Solved entries:
*Q* Can you look up the measured pIC50 of `N#Cc1c(-c2ccccc2)nc(SCc2nc3ccccc3[nH]2)nc1N1CCN(C(=O)c2ccccc2)CC1` for me?
*A* 8.62

*Q* Another: `CN1CCN(c2nc(SCc3nc4ccccc4[nH]3)nc(-c3ccccc3)c2C#N)CC1`
*A* 7.83

*Q* Another: `N#Cc1c(NC(N)=S)nc(SCc2nc3ccccc3[nH]2)nc1-c1ccccc1`
*A* 8.24

*Q* Another: `CCNc1nc(SCc2nc3ccccc3[nH]2)nc(-c2ccccc2)c1C#N`
*A* 8.36

*Q* Another: `N#Cc1c(-c2ccccc2)nc(SCc2nc3ccccc3[nH]2)nc1N1CCN(S(=O)(=O)c2ccccc2[N+](=O)[O-])CC1`
*A* 8.02

---
*Q* Can you look up the measured pIC50 of `N#Cc1c(O)nc(SCc2nc3ccccc3[nH]2)nc1-c1ccccc1` for me?
*A* 8.46

----------
# System: NCI-H460
# Experimental details: Cytotoxicity against human NCI-H460 cells after 3 days by MTT assay
# Assay type: functional, cell-based
# Cond: NCI-H460, 72 h
Readout: IC50 (nM)
Numbers only, in nM.

Each compound below has a recorded value; state its IC50.
1. CNc1nc(SCc2nc3ccccc3[nH]2)nc(-c2ccccc2)c1C#N
2. N#Cc1c(NN)nc(SCc2nc3ccccc3[nH]2)nc1-c1ccccc1
3. N#Cc1c(-c2ccccc2)nc(SCc2nc3ccccc3[nH]2)nc1N1CCNCC1
4. Cl.N=c1[nH]c(=O)[nH]c2nc(SCc3nc4ccccc4[nH]3)nc(-c3ccccc3)c12
5. N#Cc1c(Nc2ccccn2)nc(SCc2nc3ccccc3[nH]2)nc1-c1ccccc1
6. N#Cc1c(NC(N)=S)nc(SCc2nc3ccccc3[nH]2)nc1-c1ccccc1
7. N#Cc1c(-c2ccccc2)nc(SCc2nc3ccccc3[nH]2)nc1N1CCN(C(=O)c2ccccc2)CC1

*A*
1: 3.2; 2: 2.6; 3: 7.35; 4: 2.84; 5: 2.8; 6: 3.37; 7: 3.2

----------
# System: SF-268
# Experimental details: Cytotoxicity against human SF268 cells after 3 days by MTT assay
# Format: functional, cell-based
# Cond: SF-268, 72 h
The label yes (1) is reserved for IC50 strictly under 3 nM; no (0) covers values equal to or above it.

Examples with answers:
*Q* Could you please tell me whether IC50 recorded for `N#Cc1c(O)nc(SCc2nc3ccccc3[nH]2)nc1-c1ccccc1` is less than 3 nM?
*A* no (0)

*Q* Another: `Nc1ccn([C@@H]2O[C@H](CO)[C@@H](O)[C@@H]2O)c(=O)n1`
*A* no (0)

*Q* Another: `N#Cc1c(-c2ccccc2)nc(SCc2nc3ccccc3[nH]2)nc1N1CCNCC1`
*A* no (0)

*Q* Another: `N#Cc1c(-c2ccccc2)nc(SCc2nc3ccccc3[nH]2)nc1N1CCN(C(=O)c2ccccc2)CC1`
*A* yes (1)

---
*Q* Could you please tell me whether IC50 recorded for `N#Cc1c(NC(N)=S)nc(SCc2nc3ccccc3[nH]2)nc1-c1ccccc1` is less than 3 nM?
*A* no (0)

*Q* Another: `Cl.N=c1[nH]c(=O)[nH]c2nc(SCc3nc4ccccc4[nH]3)nc(-c3ccccc3)c12`
*A* yes (1)

*Q* Another: `N#Cc1c(Cl)nc(SCc2nc3ccccc3[nH]2)nc1-c1ccccc1`
*A* no (0)

*Q* Another: `N#Cc1c(NN)nc(SCc2nc3ccccc3[nH]2)nc1-c1ccccc1`
*A* yes (1)

----------
# Test system: SF-268
# Experimental details: Cytotoxicity against human SF268 cells after 3 days by MTT assay
# Type: functional, cell-based
# Cond: SF-268, 72 h
Give measured pIC50 for each item. Keep answers brief.
Answers are plain numbers, as −log10 of the molar value.

Each compound below has a recorded value; state its pIC50.
1. N#Cc1c(-c2ccccc2)nc(SCc2nc3ccccc3[nH]2)nc1N1CCN(S(=O)(=O)c2ccccc2[N+](=O)[O-])CC1
2. N#Cc1c(Nc2ccncc2)nc(SCc2nc3ccccc3[nH]2)nc1-c1ccccc1
3. CNc1nc(SCc2nc3ccccc3[nH]2)nc(-c2ccccc2)c1C#N
4. CCNc1nc(SCc2nc3ccccc3[nH]2)nc(-c2ccccc2)c1C#N

*A*
1: 8.52; 2: 8.62; 3: 8.49; 4: 8.13
